src = patent US5627203A

# target_under_test: 5-HT1A receptors (Rattus norvegicus)
# Sequence (P19327 whole entry): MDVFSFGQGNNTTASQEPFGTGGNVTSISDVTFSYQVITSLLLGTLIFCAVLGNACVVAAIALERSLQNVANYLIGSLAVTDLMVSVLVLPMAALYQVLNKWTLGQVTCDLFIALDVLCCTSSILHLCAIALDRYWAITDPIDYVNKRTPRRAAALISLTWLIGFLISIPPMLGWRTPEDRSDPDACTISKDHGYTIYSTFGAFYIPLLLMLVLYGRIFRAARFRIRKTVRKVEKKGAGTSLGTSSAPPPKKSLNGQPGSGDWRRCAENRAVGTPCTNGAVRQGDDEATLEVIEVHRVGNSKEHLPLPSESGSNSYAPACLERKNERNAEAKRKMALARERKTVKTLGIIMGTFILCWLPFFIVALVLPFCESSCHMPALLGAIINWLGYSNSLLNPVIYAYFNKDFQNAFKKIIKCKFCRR
pIC50: −log10 of the molar value.
The label depends only on pIC50: met if it is at least 5, not met if it is smaller.

[
  {
    "compound": "Cc1csc2c1-n1cccc1C2=NOCCN1CCCC1",
    "label_class": "met"
  }
]

Problem: Is pIC50 at least 5? Consider CN1CCCC1CON=C1c2sccc2-n2cccc21 (racemic)
Result: not met

Problem: Is pIC50 at least 5? Consider Cc1ccc2c(c1)C(=NOCCC1CCCN1C)c1cccn1-2 (stereo not shown)
Result: not met

Problem: Is pIC50 at least 5? Consider `CN(C)CCON=C1c2ccccc2-n2cccc21`
Result: met

Problem: Is pIC50 at least 5? Consider `CCN(CC)CCON=C1c2scc(C)c2-n2cccc21`
Result: not met

Problem: Is pIC50 at least 5? Consider `Cc1csc2c1-n1cccc1/C2=N/OCCN(C)C`
Result: met

Problem: Is pIC50 at least 5? Consider `Cc1csc2c1-n1cccc1C2=NOCCN1CCCCC1`
Result: met

Problem: Is pIC50 at least 5? Consider `Cc1csc2c1-n1cccc1/C2=N/OCCN`
Result: met

Problem: Is pIC50 at least 5? Consider `Cc1csc2c1-n1cccc1/C2=N/OCCCN(C)C`
Result: not met

====

# target_under_test: 5-HT1 receptors
# assay_overview: Displacement of 5-OH tryptamine at 5-HT1 receptors
# assay_setup: pig frontal cortex and striatum
observed_property: pIC50
Recall that pIC50 is obtained by taking minus log10 of the concentration measured in molar.

Problem: Item: CN(C)CCON=C1c2cc(Cl)ccc2-n2cccc21 [Example 49] Test system: 5-HT1 receptors Read-out: pIC50 Value: ?
Result: 5.62

Problem: Item: Cc1csc2c1-n1cccc1/C2=N/OCCN(C)C [Example 3] Test system: 5-HT1 receptors Read-out: pIC50 Value: ?
Result: 5.66

Problem: Item: Cc1csc2c1-n1cccc1/C2=N/OCC(C)N(C)C (centres unmarked) [Example 22] Test system: 5-HT1 receptors Read-out: pIC50 Value: ?
Result: 5.16

Problem: Item: CCN(CC)CCON=C1c2scc(C)c2-n2cccc21 [Example 15] Test system: 5-HT1 receptors Read-out: pIC50 Value: ?
Result: 4.96

Problem: Item: Cc1ccc2c(c1)C(=NOCCC1CCCN1C)c1cccn1-2 (centres unmarked) [Example 53] Test system: 5-HT1 receptors Read-out: pIC50 Value: ?
Result: 5.08

Problem: Item: Cc1csc2c1-n1cccc1/C2=N/OCC(C)CN(C)C (centres unmarked) [Example 23] Test system: 5-HT1 receptors Read-out: pIC50 Value: ?
Result: 5.02

Problem: Item: CN1CCCC1CON=C1c2sccc2-n2cccc21 (racemic) [Example 13] Test system: 5-HT1 receptors Read-out: pIC50 Value: ?
Result: 4.80

Problem: Item: Cc1csc2c1-n1cccc1/C2=N/OCCCN(C)C [Example 14] Test system: 5-HT1 receptors Read-out: pIC50 Value: ?
Result: 4.96

Problem: Item: Cc1csc2c1-n1cccc1C2=NOC(CCN(C)C)c1ccccc1 (centres unmarked) [Example 39] Test system: 5-HT1 receptors Read-out: pIC50 Value: ?
Result: 5.00

Problem: Item: Cc1ccc2c(c1)C(=NOCC(C)N(C)C)c1cccn1-2 (centres unmarked) [Example 52] Test system: 5-HT1 receptors Read-out: pIC50 Value: ?
Result: 5.70

Problem: Item: CN(C)CCON=C1c2ccccc2-n2cccc21 [Example 54] Test system: 5-HT1 receptors Read-out: pIC50 Value: ?
Result: 6.85

Problem: Item: Cc1csc2c1-n1cccc1C2=NOCCN1CCCC1 [Example 17] Test system: 5-HT1 receptors Read-out: pIC50 Value: ?
Result: 5.52

Problem: Item: CN(C)CCON=C1c2sccc2-n2cccc21 [Example 4] Test system: 5-HT1 receptors Read-out: pIC50 Value: ?
Result: 6.26

Problem: Item: Cc1csc2c1-n1cccc1/C2=N/OCCNCc1ccccc1 [Example 41] Test system: 5-HT1 receptors Read-out: pIC50 Value: ?
Result: 5.57

Problem: Item: Cc1csc2c1-n1cccc1C2=NOCCN1CCCCC1 [Example 18] Test system: 5-HT1 receptors Read-out: pIC50 Value: ?
Result: 5.29

Problem: Item: CC(CON=C1c2ccccc2-n2cccc21)N(C)C (centres unmarked) [Example 55] Test system: 5-HT1 receptors Read-out: pIC50 Value: ?
Result: 5.55

Problem: Item: Cc1csc2c1-n1cccc1/C2=N/OCCN [Example 40] Test system: 5-HT1 receptors Read-out: pIC50 Value: ?
Result: 6.05
